Sourced from paper PMC5900569

Assignment: determine reported pKd for the given sequences.
system: cTSN (Tudor staphylococcal nuclease) (Caenorhabditis elegans); assay: filter binding; details: 50 mM HEPES pH 7.0, 250 mM NaCl, 5 mM beta-mercaptoethanol, 2 mM EDTA, 30 min, room temperature; cTSN 0-2 uM
Give bare numbers, as −log10 of the molar value.

Worked cases, answers included:
- entry.sequence: "ACUGGACAAAUACUCCGAGG [ssRNA 20 nt]"
  pKd: 6.12
- entry.sequence: "CAGUCACCCAUAAAGUAGAAAGCACUACUGUGGGUAGUGUUUCCUACUUUAUGGAUGAGUG [pre-miR142]"
  pKd: 6.87
- entry.sequence: "ACUGGACAAAUACUCCGAGG / CCUCGGAGUAUUUGUCCAGU [dsRNA 20 bp]"
  pKd: 6.41

Lookup: What value of pKd has been reported for the following sequence? CAGUCACCCAUAAAGUAGAAAGCACUAC / GUAGUGUUUCCUACUUUAUGGAUGAGUG [pre-miR142Δloop]
Found: 6.63
